Tested on: PPARa:RXRa (NR concentration 270 nM, RXRa partner concentration 90 nM)
experiment-notes: PBM binding z-score (relative to random genomic background probes); higher = stronger binding; sequences stand for … in GC…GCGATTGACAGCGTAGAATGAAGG
Parameter: PBM binding z-score. Scope: all listed entries.
assay-endpoint: PBM binding z-score

[[record]]
polymer_sequence = "TCAGACGGGTGAAGGTAACTCAGGTACGCAGTCG"
test_target = "PPARa:RXRa (NR concentration 270 nM, RXRa partner concentration 90 nM)"
measurement = 1.02

[[record]]
polymer_sequence = "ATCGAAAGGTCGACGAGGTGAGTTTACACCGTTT"
test_target = "PPARa:RXRa (NR concentration 270 nM, RXRa partner concentration 90 nM)"
measurement = 4.71

[[record]]
polymer_sequence = "CGAACTAGGTCATTGACATGACAGTGAATAGTAA"
test_target = "PPARa:RXRa (NR concentration 270 nM, RXRa partner concentration 90 nM)"
measurement = 4.88

[[record]]
polymer_sequence = "CGTCCAAGGTCGAGGTCAGTGAAAGAGACTCGAA"
test_target = "PPARa:RXRa (NR concentration 270 nM, RXRa partner concentration 90 nM)"
measurement = 4.31

[[record]]
polymer_sequence = "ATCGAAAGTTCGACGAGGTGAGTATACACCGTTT"
test_target = "PPARa:RXRa (NR concentration 270 nM, RXRa partner concentration 90 nM)"
measurement = 1.18

[[record]]
polymer_sequence = "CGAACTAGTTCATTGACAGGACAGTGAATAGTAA"
test_target = "PPARa:RXRa (NR concentration 270 nM, RXRa partner concentration 90 nM)"
measurement = 0.375

[[record]]
polymer_sequence = "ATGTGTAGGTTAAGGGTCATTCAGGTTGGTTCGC"
test_target = "PPARa:RXRa (NR concentration 270 nM, RXRa partner concentration 90 nM)"
measurement = 5.72

[[record]]
polymer_sequence = "CCTTACGGGTCACTGCAGGTTATAGCATCGGAGT"
test_target = "PPARa:RXRa (NR concentration 270 nM, RXRa partner concentration 90 nM)"
measurement = 4.88

[[record]]
polymer_sequence = "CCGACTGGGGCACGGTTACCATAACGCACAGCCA"
test_target = "PPARa:RXRa (NR concentration 270 nM, RXRa partner concentration 90 nM)"
measurement = 0.346

[[record]]
polymer_sequence = "CCTGATAGGTCAATGGTCAGCTAAAGCAGCTCGC"
test_target = "PPARa:RXRa (NR concentration 270 nM, RXRa partner concentration 90 nM)"
measurement = 4.48

[[record]]
polymer_sequence = "TCTAGTTGGTCACGGAGGTCACGCACGACGGGTA"
test_target = "PPARa:RXRa (NR concentration 270 nM, RXRa partner concentration 90 nM)"
measurement = 4.54

[[record]]
polymer_sequence = "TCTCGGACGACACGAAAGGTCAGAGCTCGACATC"
test_target = "PPARa:RXRa (NR concentration 270 nM, RXRa partner concentration 90 nM)"
measurement = 3.69

[[record]]
polymer_sequence = "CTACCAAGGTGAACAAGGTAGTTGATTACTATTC"
test_target = "PPARa:RXRa (NR concentration 270 nM, RXRa partner concentration 90 nM)"
measurement = 1.19

[[record]]
polymer_sequence = "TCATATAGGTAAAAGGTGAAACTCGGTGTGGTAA"
test_target = "PPARa:RXRa (NR concentration 270 nM, RXRa partner concentration 90 nM)"
measurement = 5.64

[[record]]
polymer_sequence = "CCTACTGGGCCTAAAAGGTCATTGATGCCGATAA"
test_target = "PPARa:RXRa (NR concentration 270 nM, RXRa partner concentration 90 nM)"
measurement = 4.78

[[record]]
polymer_sequence = "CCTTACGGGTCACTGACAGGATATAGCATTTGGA"
test_target = "PPARa:RXRa (NR concentration 270 nM, RXRa partner concentration 90 nM)"
measurement = 5.22

[[record]]
polymer_sequence = "CAAACTAGGTCACAGAGGTCAAAGTGCGTGCGTA"
test_target = "PPARa:RXRa (NR concentration 270 nM, RXRa partner concentration 90 nM)"
measurement = 6.71

[[record]]
polymer_sequence = "TCTAGTTGGTCACGGAGGTCACATACGACGGGTA"
test_target = "PPARa:RXRa (NR concentration 270 nM, RXRa partner concentration 90 nM)"
measurement = 3.93

[[record]]
polymer_sequence = "ATTCAAAGTTCATCTAGGTAACGTAAGATATGCT"
test_target = "PPARa:RXRa (NR concentration 270 nM, RXRa partner concentration 90 nM)"
measurement = 4.52

[[record]]
polymer_sequence = "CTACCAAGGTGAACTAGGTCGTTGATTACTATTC"
test_target = "PPARa:RXRa (NR concentration 270 nM, RXRa partner concentration 90 nM)"
measurement = 2.59

[[record]]
polymer_sequence = "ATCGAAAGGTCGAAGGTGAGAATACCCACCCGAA"
test_target = "PPARa:RXRa (NR concentration 270 nM, RXRa partner concentration 90 nM)"
measurement = 4.73

[[record]]
polymer_sequence = "TTACCAAGGTGAAGGTAGTTGATCCCTCTGTAGA"
test_target = "PPARa:RXRa (NR concentration 270 nM, RXRa partner concentration 90 nM)"
measurement = 1.44

[[record]]
polymer_sequence = "ACTTACGGGTCAACGAGGATATAGCACGCGTATA"
test_target = "PPARa:RXRa (NR concentration 270 nM, RXRa partner concentration 90 nM)"
measurement = 5.43

[[record]]
polymer_sequence = "CCTTACGGGTCACTGACAGGTTATAGCTTTTGGA"
test_target = "PPARa:RXRa (NR concentration 270 nM, RXRa partner concentration 90 nM)"
measurement = 4.88

[[record]]
polymer_sequence = "TAGCCTAGGTCCTGGGCCAGTATACCACGCGAAC"
test_target = "PPARa:RXRa (NR concentration 270 nM, RXRa partner concentration 90 nM)"
measurement = -0.439

[[record]]
polymer_sequence = "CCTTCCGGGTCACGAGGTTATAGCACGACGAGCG"
test_target = "PPARa:RXRa (NR concentration 270 nM, RXRa partner concentration 90 nM)"
measurement = 5.88

